Quick list: IC50 per entry.
# Target Or System: TRKA (Homo sapiens)
# Construct: purchased Carna 08-186
# Sequence (P04629 33-796): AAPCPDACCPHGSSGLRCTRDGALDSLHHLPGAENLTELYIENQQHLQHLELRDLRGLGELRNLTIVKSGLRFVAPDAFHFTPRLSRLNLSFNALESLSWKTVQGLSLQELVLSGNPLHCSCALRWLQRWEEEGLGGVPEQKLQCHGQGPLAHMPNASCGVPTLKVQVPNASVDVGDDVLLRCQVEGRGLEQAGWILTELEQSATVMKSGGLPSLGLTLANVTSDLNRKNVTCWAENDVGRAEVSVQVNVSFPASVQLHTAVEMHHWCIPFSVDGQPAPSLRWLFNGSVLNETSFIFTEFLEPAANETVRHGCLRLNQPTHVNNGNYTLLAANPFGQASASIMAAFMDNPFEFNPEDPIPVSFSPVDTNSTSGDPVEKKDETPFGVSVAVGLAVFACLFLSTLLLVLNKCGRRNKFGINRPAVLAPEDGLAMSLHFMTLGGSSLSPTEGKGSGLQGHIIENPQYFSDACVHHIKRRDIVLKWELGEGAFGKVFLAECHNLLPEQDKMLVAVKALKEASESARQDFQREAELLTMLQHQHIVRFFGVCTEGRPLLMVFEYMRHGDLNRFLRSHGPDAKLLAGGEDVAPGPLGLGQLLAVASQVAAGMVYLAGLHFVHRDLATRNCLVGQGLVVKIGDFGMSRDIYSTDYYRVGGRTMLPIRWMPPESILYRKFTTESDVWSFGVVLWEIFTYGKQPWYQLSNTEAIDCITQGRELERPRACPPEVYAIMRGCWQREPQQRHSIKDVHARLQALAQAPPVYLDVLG
# Method Notes: Determination of inhibitory activity against TRKA kinase (ADP-Glo Kinase Assay)
# Assay type: biochemical
# Recorded Conditions: ATP 5 μM, Poly (4:1 Glu, Tyr) Peptide 0.03 mg/ml
Record the value in nM, omitting the unit from your answer.

Past entries and their recorded results:
CC(Oc1ccc2[nH]nc(-c3nc4c([nH]3)CN(CC3CCCNC3)C4)c2c1)c1cc(F)cc(F)c1 (stereo not shown)    1.5
O=C(C1CC1)N1Cc2nc(-c3n[nH]c4ccc(Cc5cc(F)cc(F)c5)cc34)[nH]c2C1    6.9
CC(Oc1ccc2[nH]nc(-c3nc4c([nH]3)CN(C(=O)OC3CCN(C)CC3)C4)c2c1)c1cc(F)cc(F)c1 (stereo not shown)    0.77

Here is the next item to consider.
Short answer please: IC50, TRKA (Homo sapiens), entry CC(Oc1ccc2[nH]nc(-c3nc4c([nH]3)CN(C3CCCC(N(C)C)C3)C4)c2c1)c1cc(F)cc(F)c1 (stereo not shown) 1.6

----------
Recorded IC50, one value per entry.
# Target Or System: TRKC (Homo sapiens, UniProt Q16288)
# Construct: purchased Carna 08-196
# Sequence (Q16288 32-839): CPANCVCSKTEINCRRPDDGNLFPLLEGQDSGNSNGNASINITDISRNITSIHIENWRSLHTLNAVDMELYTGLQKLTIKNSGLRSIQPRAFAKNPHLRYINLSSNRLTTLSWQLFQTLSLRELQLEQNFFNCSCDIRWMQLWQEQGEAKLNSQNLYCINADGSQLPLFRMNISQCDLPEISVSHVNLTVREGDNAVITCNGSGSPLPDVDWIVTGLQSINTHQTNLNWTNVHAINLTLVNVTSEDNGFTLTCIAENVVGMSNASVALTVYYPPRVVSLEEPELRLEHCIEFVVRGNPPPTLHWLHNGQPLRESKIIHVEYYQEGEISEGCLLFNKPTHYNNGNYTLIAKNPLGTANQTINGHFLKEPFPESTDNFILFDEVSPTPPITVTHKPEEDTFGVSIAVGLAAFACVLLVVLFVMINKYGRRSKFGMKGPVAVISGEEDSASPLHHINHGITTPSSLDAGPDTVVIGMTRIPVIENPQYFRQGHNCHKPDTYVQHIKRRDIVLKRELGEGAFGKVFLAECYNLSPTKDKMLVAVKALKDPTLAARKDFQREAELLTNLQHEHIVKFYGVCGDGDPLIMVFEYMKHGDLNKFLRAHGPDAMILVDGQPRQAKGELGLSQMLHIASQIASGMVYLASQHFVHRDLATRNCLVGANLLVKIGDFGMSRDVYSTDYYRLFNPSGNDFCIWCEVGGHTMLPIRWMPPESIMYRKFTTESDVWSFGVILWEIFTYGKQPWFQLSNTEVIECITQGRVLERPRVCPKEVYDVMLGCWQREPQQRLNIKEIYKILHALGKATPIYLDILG
# Method Notes: Determination of inhibitory activity against TRKC kinase (ADP-Glo Kinase Assay)
# Type: biochemical
# Recorded Conditions: ATP 5 μM, Poly (4:1 Glu, Tyr) Peptide 0.03 mg/ml
Give the value in nM but do not write nM after it.

Record excerpt, results attached:
CS(=O)(=O)N1Cc2nc(-c3n[nH]c4ccc(Cc5cc(F)cc(F)c5)cc34)[nH]c2C1    11
CC(Oc1ccc2[nH]nc(-c3nc4c([nH]3)CN(CC3CCN(C(C)C)CC3)C4)c2c1)c1cc(F)cc(F)c1 (stereo not shown)    0.51
CC(Oc1ccc2[nH]nc(-c3nc4c([nH]3)CN(C3CCN(C)C3)C4)c2c1)c1cc(F)cc(F)c1 (stereo not shown)    7.7
O=C(C1CC1)N1Cc2nc(-c3n[nH]c4ccc(Cc5cc(F)cc(F)c5)cc34)[nH]c2C1    9.2
CC(Oc1ccc2[nH]nc(-c3nc4c([nH]3)CN(C3CCC(N(C)C)C3)C4)c2c1)c1cc(F)cc(F)c1 (stereo not shown)    2.9

Record CC(Oc1ccc2[nH]nc(-c3nc4c([nH]3)CN(C(=O)OC3CN(C)C3)C4)c2c1)c1cc(F)cc(F)c1 (stereo not shown) : what is its IC50 with TRKC (Homo sapiens, UniProt Q16288)? 1.1

Provide the documented IC50 with TRKC (Homo sapiens, UniProt Q16288) as the system for CC(Oc1ccc2[nH]nc(-c3nc4c([nH]3)CN(C(=O)N(C)C)C4)c2c1)c1cc(F)cc(F)c1 (stereo not shown) 3.1

All values here come from patent US20240317760A1.
